target.under.test: HLA-A*33:01
assay.details: IEDB peptide-MHC binding, purified MHC/competitive/radioactivity; filed as Kd, often an IC50 or EC50 that approximates it; bounds were set here for any values at or beyond the usual limits of such assays
run.parameters: source organism: Plasmodium falciparum 3D7
For each record, check the reported Kd: if it is below 1 µM write 1 (yes), else write 0 (no).

Sample answers from the record:
Exercise: Consider MQSSFFMNR . Does its Kd lie strictly below 1 µM?
Solution: 1 (yes)

Exercise: Can you check IIALLIIPPK next?
Solution: 0 (no)

Exercise: Can you check PVLTSLFNK next?
Solution: 0 (no)

Exercise: Can you check AFLESQSMNK next?
Solution: 0 (no)

Exercise: Can you check NIFLRFIPDK next?
Solution: 0 (no)

***
Exercise: Consider RLPLLPKTWK . Does its Kd lie strictly below 1 µM?
Solution: 0 (no)
